measured-on: UniProtKB O60674
pIC50: −log10 of the molar value.
The reader will find reported pIC50 values listed item by item below.
attribute-measured: pIC50

compound | observed-result
COc1cc(Nc2nc3cccc(-c4ccccn4)c3o2)cc(OC)c1OC [Example 46] | 6.46
CNS(=O)(=O)c1ccc(-c2cccc3nc(Nc4ccc(OC)c(OC)c4)oc23)cc1 [Example 59] | 7.39
COc1cc(Nc2nc3cccc(-c4ccc(NS(C)(=O)=O)cc4)c3o2)cc(OC)c1OC [Example 26] | 7.28
Nc1ccc(-c2cccc3nc(Nc4ccc(N5CCOCC5)cc4)oc23)cc1 [Example 40] | 5.96
COc1cc(Nc2nc3cccc(-c4cccc([N+](=O)[O-])c4)c3o2)cc(OC)c1OC [Example 48] | 6.15
COc1cc(Nc2nc3cccc(-c4ccc5[nH]cnc5c4)c3o2)cc(OC)c1OC [Example 35] | 6.92
COc1cc(Nc2nc3cccc(-c4cccc(S(C)(=O)=O)c4)c3o2)cc(OC)c1OC [Example 49] | 6.28
COc1cc(Nc2nc3ccnc(-c4ccc(N)cc4)c3o2)cc(OC)c1OC [Example 36] | 6.92
COc1cc(Nc2nc3cccc(-c4ccc(CNS(C)(=O)=O)cc4)c3o2)cc(OC)c1OC [Example 31] | 7.22
COc1cc(Nc2nc3cccc(-c4ccc(C)c(N)c4)c3o2)cc(OC)c1OC [Example 13] | 6.76
CN(C)CCNC(=O)c1ccc(Nc2nc3cccc(-c4ccc(S(N)(=O)=O)cc4)c3o2)cc1 [Example 57] | 6.82
COc1cc(Nc2nc3cccc(-c4cccc(O)c4)c3o2)cc(OC)c1OC [Example 6] | 6.75
COc1cc(Nc2nc3cccc(-c4ccc(NC(C)=O)cc4)c3o2)cc(OC)c1OC [Example 27] | 6.70
CNC(=O)Cc1ccc(-c2cccc3nc(Nc4cc(OC)c(OC)c(OC)c4)oc23)cc1 [Example 61] | 7.06
COc1cc(Nc2nc3ccnc(-c4cccc(N)c4)c3o2)cc(OC)c1OC [Example 37] | 6.62
COc1cc(Nc2nc3cccc(-c4ccc(N(C)C)cc4)c3o2)cc(OC)c1OC [Example 54] | 6.46
COc1cccc(-c2cccc3nc(Nc4ccc(N5CCOCC5)cc4)oc23)c1 [Example 39] | 5.92

###

measured-on: GST-JAK2(808-1132) (Homo sapiens)
Sequence (O60674 808-1132): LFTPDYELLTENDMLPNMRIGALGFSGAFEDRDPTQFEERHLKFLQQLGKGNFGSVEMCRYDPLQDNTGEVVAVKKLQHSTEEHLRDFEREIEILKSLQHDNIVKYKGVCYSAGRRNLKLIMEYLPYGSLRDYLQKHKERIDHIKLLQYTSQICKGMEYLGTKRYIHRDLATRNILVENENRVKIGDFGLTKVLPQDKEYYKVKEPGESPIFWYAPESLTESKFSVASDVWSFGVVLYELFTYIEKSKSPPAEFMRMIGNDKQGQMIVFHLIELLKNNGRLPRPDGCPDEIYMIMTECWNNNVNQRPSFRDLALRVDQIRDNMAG
pIC50: −log10 of the molar value.
attribute-measured: pIC50

mol-smiles | attribute-measured | rel | observed-result
O=C(c1ccc(-c2cccc3nc(Nc4ccc(N5CCNCC5)cc4)oc23)cc1F)N1CCOCC1 | pIC50 | = | 7.19
Cc1cc(Nc2nc3cccc(-c4ccc(CC(=O)N5CCOCC5)cc4)c3o2)ccc1C(=O)N1CCN(C)CC1 | pIC50 | = | 7.77
CCN1CCN(c2ccc(Nc3nc4cccc(-c5ccc(CN6CCS(=O)(=O)CC6)c(F)c5)c4o3)cc2C)CC1 | pIC50 | > | 8.52
COc1cc(Nc2nc3cccc(-c4ccc(C(N)=O)cc4)c3o2)cc(OC)c1OC | pIC50 | = | 7.46
Cc1cc(Nc2nc3cccc(-c4cc(F)c(CN5CCOCC5)c(F)c4)c3o2)ccc1N1CCN(CCC(F)(F)F)CC1 | pIC50 | = | 6.68
Cc1cc(Nc2nc3cccc(-c4cc(F)c(CN5CCOCC5)c(F)c4)c3o2)ccc1C(=O)N(C)CCN(C)C | pIC50 | = | 7.68
Cc1cc(Nc2nc3cccc(-c4ccc(CN5CCOCC5)c(C(F)(F)F)c4)c3o2)ccc1C(=O)N(C)C | pIC50 | = | 7.10
